Ref: patent US5767235

biological target: human-thrombin (product of Sigma) (human)
Consider the cut-off 40000 ng/mL. If the recorded 50% Inhibition Concentration (clotting assay) is strictly smaller, the label is y; if not, the label is n.

Recorded results for 10 substances are shown here.
peptide (C) Suc-Gly-Asp-Phe-Glu-Pro-Ile-Pro-Glu-Tyr-Tyr-Leu-Gln-OH; y
peptide (A) Gly-Asp-Phe-Glu-Glu-Ile-Pro-Glu-Tyr-Tyr-Leu-Gln; y
peptide (U) Suc-Phe-Glu-Pro-Ile-Pro-Glu-Tyr-Tyr-Leu-(D)Asu(OMe)OMe; n
peptide (I) Suc-Phe-Glu-Pro-Ile-Pro-Glu-Tyr-Tyr-OH; y
peptide (N) Suc-Phe-Glu-Pro-Ile-Pro-Glu-Tyr-Tyr-NH(CH2)3OH; n
peptide (B) Gly-Asp-Phe-Glu-Glu-Ile-Pro-Tyr-Tyr-Tyr-Leu-Gln; y
peptide (L) Suc-Phe-Glu-Pro-Ile-Pro-Glu-Tyr-Tyr-NH(CH2)4COOH; y
peptide (K) Suc-Phe-Glu-Pro-Ile-Pro-Glu-Tyr-Tyr-NH(CH2)2COOH; y
peptide (S) Suc-Phe-Glu-Pro-Ile-Pro-Glu-Tyr-Tyr-Leu-Tau-NH2; n
peptide (O) Suc-Phe-Glu-Pro-Ile-Pro-Glu-Tyr-Tyr-(L)Asu(OMe)OMe; y

# TODO verify 50% Inhibition Concentration (clotting assay) < 40000 ng/mL strictly for this substance: peptide (R) Suc-Phe-Glu-Pro-Ile-Pro-Glu-Tyr-Tyr-Leu-NHEt
y

Please answer likewise for peptide (P) Suc-Phe-Glu-Pro-Ile-Pro-Glu-Tyr-Tyr-Leu-ol
n

Do the same for peptide (Y) Suc-Phe-Glu-Pro-Ile-Pro-Glu-Tyr-Tyr-Leu-NHPO(OH)2 please
n

Further, for peptide (J) Suc-Phe-Glu-Pro-Ile-Pro-Glu-Tyr-Tyr-NH2 ?
n

Item: peptide (V) Suc-Phe-Glu-Pro-Ile-Pro-Glu-Tyr-Tyr-Leu-(L)Asu(OMe)OMe
y

What would you report for peptide (W) Suc-Phe-Glu-Pro-Ile-Pro-Glu-Tyr-Tyr-Leu-(D)Asu(NH2)NH2 ?
y
